- System: Staphylococcus aureus
- methodSummary: Control: microbicidal activity of the amino acid or analogue alone (no glucose, MPO, glucose oxidase) in the presence of blood
- Type: cell-based
- runConditions: Staphylococcus aureus, 1 h; amino acid alone 5 mM; MPO 0; GO 0; no glucose; blood; without replication; read-out: Log Reduction 60 min
A collection of compounds and their measured log reduction at 5000 µM
API note: the answer field is a bare number with no unit suffix.

Here is how some compounds turned out for log reduction at 5000 µM.
GET /value?item= C[C@@H](O)[C@H](N)C(=O)O &field=log reduction at 5000 µM returns 0

GET /value?item= CSCC[C@@H](N)C(=O)O &field=log reduction at 5000 µM returns 0.1

GET /value?item= N[C@H](Cc1ccc(O)cc1)C(=O)O &field=log reduction at 5000 µM returns 0

GET /value?item= CC(C)[C@H](N)C(=O)O &field=log reduction at 5000 µM returns 0

GET /value?item= NCCS(=O)(=O)O &field=log reduction at 5000 µM returns 0

GET /value?item= N[C@H](CC(=O)O)C(=O)O &field=log reduction at 5000 µM returns 0.1

GET /value?item= CC(C)C[C@@H](N)C(=O)O &field=log reduction at 5000 µM returns 0

# ---- query compound ----
GET /value?item= COC(=O)[C@H](C)N &field=log reduction at 5000 µM returns 0
